Provide the recorded cytotoxicity at 70.5 h for the entries that follow.
Assay: Human HepG2 cell viability assay in 384 well format
Format: toxicity, cell-based
Set-up: dose 125 nL, time 70.5 hour; concentration not given beside the values
Conditions: HepG2 cells, read-out: Inhibition
Provide only the numeric value, understood in %.

Incoming: Provide only the value of recorded cytotoxicity at 70.5 h for `N#Cc1ccc(OC2CCN(C(=O)Cc3cccs3)CC2)nc1`
Outgoing: -0.57

Incoming: Provide only the value of recorded cytotoxicity at 70.5 h for N#Cc1ccc(F)c(CN(CC(=O)N2CCCC2)CC2CCCO2)c1 (configuration not stated)
Outgoing: 0.0703

Incoming: Provide only the value of recorded cytotoxicity at 70.5 h for COc1ccccc1CC(C)CC(=O)NC(C)C (configuration not stated)
Outgoing: 0.743

Incoming: Provide only the value of recorded cytotoxicity at 70.5 h for `CC(C)[C@@H](CO)Nc1cc(-c2cn[nH]c2)ncn1`
Outgoing: 0.985

Incoming: Provide only the value of recorded cytotoxicity at 70.5 h for `CN(Cc1cccs1)C(=O)Cn1cc(NC(=O)C(C)(C)C)cn1`
Outgoing: -7.51

Incoming: Provide only the value of recorded cytotoxicity at 70.5 h for `O=S1(=O)C[C@@H]2[C@H](C1)N(Cc1cccc(O)c1)CCN2CC1CC1`
Outgoing: -5.99

Incoming: Provide only the value of recorded cytotoxicity at 70.5 h for `COCCn1ccnc1-c1[nH]cnc1C`
Outgoing: 6.67

Incoming: Provide only the value of recorded cytotoxicity at 70.5 h for Cc1cnn(CC2CCCCN2C(=O)c2ccc3c(c2)COC3)c1 (configuration not stated)
Outgoing: 4.39

Incoming: Provide only the value of recorded cytotoxicity at 70.5 h for `O=C1OCCN1Cc1cc(C(F)(F)F)ccc1F`
Outgoing: -7.38

Incoming: Provide only the value of recorded cytotoxicity at 70.5 h for CC(C)N(C)CC(=O)NCC(O)c1cc2ccccc2s1 (configuration not stated)
Outgoing: -7.72

Incoming: Provide only the value of recorded cytotoxicity at 70.5 h for CC(Cc1ccccc1F)C(=O)Nc1ccc(OCCC(N)=O)cc1 (configuration not stated)
Outgoing: -3.92

Incoming: Provide only the value of recorded cytotoxicity at 70.5 h for `CN(CCN1CCOC1=O)CC(=O)Nc1ccc(Cl)c(Cl)c1`
Outgoing: -20.1
